Record form. Attribute: DC50. Fill in for each entry.
Target: Protein cereblon/Cyclin-dependent kinase 6 (Homo sapiens, UniProt Q00534+Q96SW2)
Assay: PROTAC activity at CDK6/CRBN in human Jurkat cells assessed as protein degradation by Western blot analysis
Type: cell-based
Sequence (Q96SW2 whole entry, one chain of several): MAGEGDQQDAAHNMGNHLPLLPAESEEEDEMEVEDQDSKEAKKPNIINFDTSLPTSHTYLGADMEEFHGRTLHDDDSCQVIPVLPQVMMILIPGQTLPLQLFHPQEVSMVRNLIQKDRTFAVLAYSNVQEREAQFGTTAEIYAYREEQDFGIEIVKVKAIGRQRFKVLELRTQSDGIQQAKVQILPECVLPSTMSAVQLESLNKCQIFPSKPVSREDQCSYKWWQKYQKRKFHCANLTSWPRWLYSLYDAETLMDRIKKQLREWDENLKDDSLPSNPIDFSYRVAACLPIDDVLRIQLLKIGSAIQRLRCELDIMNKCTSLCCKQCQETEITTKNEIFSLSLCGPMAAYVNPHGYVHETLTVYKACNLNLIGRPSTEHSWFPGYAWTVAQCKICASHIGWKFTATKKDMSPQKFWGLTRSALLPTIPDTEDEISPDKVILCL
# number only, unit nM dropped from output

What is its DC50 for Protein cereblon/Cyclin-dependent kinase 6 (Homo sapiens, UniProt Q00534+Q96SW2)? Entry: O=C1CCC(N2C(=O)c3cccc(NCCOCCOCCN4CCN(c5ccc(Nc6ncc7ncc(=O)n(C8CCCC8)c7n6)cc5)CC4)c3C2=O)C(=O)N1 (stereo not drawn)
5.3

What is its DC50 for Protein cereblon/Cyclin-dependent kinase 6 (Homo sapiens, UniProt Q00534+Q96SW2)? Entry: O=C1CCC(N2C(=O)c3ccc(N4CCN(CC5CCN(C(=O)CN6CCN(c7ccc(Nc8ncc9ncc(=O)n(C%10CCCC%10)c9n8)cc7)CC6)CC5)CC4)cc3C2=O)C(=O)N1 (stereo not drawn)
2.3

----------
Target: Protein cereblon/Cyclin-dependent kinase 6 (Homo sapiens, UniProt Q00534+Q96SW2)
Test: PROTAC activity at CDK6/CRBN in human Jurkat cells assessed as maximal protein degradation by Western blot analysis relative to control
Type: cell-based
Sequence (Q96SW2 whole entry, looked up, one chain of several): as the sequence (Q96SW2 whole entry, one chain of several) above
Record form. Attribute: Emax. Fill in for each entry.
# number only, unit % dropped from output

Which Emax is listed for O=C(CCCCN1CCN(c2ccc(Nc3ncc4ncc(=O)n(C5CCCC5)c4n3)cc2)CC1)NCCNc1cccc2c1C(=O)N(C1CCC(=O)NC1=O)C2=O (stereo unspecified) ?
96

Which Emax is listed for O=C1CCC(N2C(=O)c3cccc(NC(=O)CCCCCn4cc(CN5CCN(c6ccc(Nc7ncc8ncc(=O)n(C9CCCC9)c8n7)cc6)CC5)nn4)c3C2=O)C(=O)N1 (stereo unspecified) ?
95

Which Emax is listed for O=C1CCC(N2C(=O)c3cccc(NCCOCCN4CCN(c5ccc(Nc6ncc7ncc(=O)n(C8CCCC8)c7n6)cc5)CC4)c3C2=O)C(=O)N1 (stereo unspecified) ?
91

Which Emax is listed for O=C(CN1CCN(c2ccc(Nc3ncc4ncc(=O)n(C5CCCC5)c4n3)cc2)CC1)NCCCCNc1cccc2c1C(=O)N(C1CCC(=O)NC1=O)C2=O (stereo unspecified) ?
40

Which Emax is listed for O=C1CCC(N2C(=O)c3ccc(N4CCN(C(=O)CN5CCN(c6ccc(Nc7ncc8ncc(=O)n(C9CCCC9)c8n7)cc6)CC5)CC4)cc3C2=O)C(=O)N1 (stereo unspecified) ?
86

Which Emax is listed for O=C1CCC(N2C(=O)c3cccc(NC(=O)CCCCCN4CCN(c5ccc(Nc6ncc7ncc(=O)n(C8CCCC8)c7n6)cc5)CC4)c3C2=O)C(=O)N1 (stereo unspecified) ?
85

----------
Biological target: Cyclin-dependent kinase 6 (Homo sapiens, UniProt Q00534)
Sequence (Q00534 whole entry): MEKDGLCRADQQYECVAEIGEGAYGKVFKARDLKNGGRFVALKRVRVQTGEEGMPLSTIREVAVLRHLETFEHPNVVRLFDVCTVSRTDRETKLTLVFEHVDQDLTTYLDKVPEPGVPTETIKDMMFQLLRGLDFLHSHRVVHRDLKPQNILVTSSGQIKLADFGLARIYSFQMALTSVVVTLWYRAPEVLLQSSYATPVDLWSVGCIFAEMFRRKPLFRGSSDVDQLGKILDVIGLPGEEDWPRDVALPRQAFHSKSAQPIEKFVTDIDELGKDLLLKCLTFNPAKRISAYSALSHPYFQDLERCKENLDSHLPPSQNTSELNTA
recordedEndpoint: pIC50
Scale for pIC50: -log10 of concentration given in mol/L; no unit attached.

Which pIC50 is listed for O=c1cnc2cnc(Nc3ccc(N4CCNCC4)cc3)nc2n1C1CCCC1 ?
7.06

----------
Molecular target: Cyclin-dependent kinase 4 (Homo sapiens)
Sequence (P11802 whole entry): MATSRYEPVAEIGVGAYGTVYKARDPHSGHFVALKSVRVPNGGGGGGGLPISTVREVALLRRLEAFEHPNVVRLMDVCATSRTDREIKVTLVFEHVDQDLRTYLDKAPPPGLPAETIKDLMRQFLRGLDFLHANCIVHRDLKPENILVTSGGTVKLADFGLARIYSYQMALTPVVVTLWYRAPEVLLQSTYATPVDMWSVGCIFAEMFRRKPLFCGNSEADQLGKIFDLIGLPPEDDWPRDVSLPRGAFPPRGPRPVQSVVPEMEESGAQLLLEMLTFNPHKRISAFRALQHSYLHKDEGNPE
Test: Inhibition of CDK4 (unknown origin)
recordedEndpoint: pIC50
Scale for pIC50: -log10 of concentration given in mol/L; no unit attached.

Which pIC50 is listed for O=c1cnc2cnc(Nc3ccc(N4CCNCC4)cc3)nc2n1C1CCCC1 ?
8.11

----------
Target: Protein cereblon/Cyclin-dependent kinase 6 (Homo sapiens, UniProt Q00534+Q96SW2)
Test: PROTAC activity at CDK6/CRBN in human Jurkat cells assessed as protein degradation by Western blot analysis
Format: cell-based
# met = DC50 below 20 nM (exclusive); not met = DC50 at/above 20 nM

Consider O=C1CCC(N2C(=O)c3ccc(N4CCN(C(=O)CN5CCN(c6ccc(Nc7ncc8ncc(=O)n(C9CCCC9)c8n7)cc6)CC5)CC4)cc3C2=O)C(=O)N1 (configuration not stated) . Does its DC50 lie strictly below 20 nM?
met

Consider O=C1CCC(N2C(=O)c3cccc(NC(=O)CCCCCCN4CCN(c5ccc(Nc6ncc7ncc(=O)n(C8CCCC8)c7n6)cc5)CC4)c3C2=O)C(=O)N1 (configuration not stated) . Does its DC50 lie strictly below 20 nM?
met

Consider O=C1CCC(N2C(=O)c3cccc(NC(=O)CCCCCCC(=O)N4CCN(c5ccc(Nc6ncc7ncc(=O)n(C8CCCC8)c7n6)cc5)CC4)c3C2=O)C(=O)N1 (configuration not stated) . Does its DC50 lie strictly below 20 nM?
not met

Consider O=C1CCC(N2C(=O)c3cccc(NCCOCCN4CCN(c5ccc(Nc6ncc7ncc(=O)n(C8CCCC8)c7n6)cc5)CC4)c3C2=O)C(=O)N1 (configuration not stated) . Does its DC50 lie strictly below 20 nM?
not met

Consider O=C(CCCCN1CCN(c2ccc(Nc3ncc4ncc(=O)n(C5CCCC5)c4n3)cc2)CC1)NCCNc1cccc2c1C(=O)N(C1CCC(=O)NC1=O)C2=O (configuration not stated) . Does its DC50 lie strictly below 20 nM?
met

Consider O=C1CCC(N2C(=O)c3cccc(NC(=O)CCCCCN4CCN(c5ccc(Nc6ncc7ncc(=O)n(C8CCCC8)c7n6)cc5)CC4)c3C2=O)C(=O)N1 (configuration not stated) . Does its DC50 lie strictly below 20 nM?
not met

Consider O=C1CCC(N2C(=O)c3cccc(NC(=O)CCCCCn4cc(CN5CCN(c6ccc(Nc7ncc8ncc(=O)n(C9CCCC9)c8n7)cc6)CC5)nn4)c3C2=O)C(=O)N1 (configuration not stated) . Does its DC50 lie strictly below 20 nM?
met

These data points were gathered from ChEMBL document CHEMBL5523729.
